# STUDY TARGET: T1, IFN-αJ1 (human, UniProt P01567 24-189)
# T1 construct: also called IFN-α7; alpha J1
# ASSAY TEXT: ProteOn, one antigen concentration
pKd: −log10 of the molar value.

BINDER | pKd
IFWM3364 (antibody, V domains shown, VH IFWH624, VL IFWL1060; converted mAb; also called IFWB3099) VH: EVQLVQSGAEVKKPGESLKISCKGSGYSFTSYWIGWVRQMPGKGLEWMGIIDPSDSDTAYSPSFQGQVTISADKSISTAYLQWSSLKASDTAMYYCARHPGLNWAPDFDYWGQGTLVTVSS VL: DIQMTQSPSSLSASVGDRVTITCRASQSIRNSLNWYQQKPGKAPKLLIKWASSLQSGVPSRFSGSGSGTDFTLTISSLQPEDFATYYCQQLYDWPLTFGQGTKVEIK | 9.60
IFWM3325 (antibody, V domains shown, VH IFWH591, VL IFWL1060; converted mAb; also called IFWB3060) VH: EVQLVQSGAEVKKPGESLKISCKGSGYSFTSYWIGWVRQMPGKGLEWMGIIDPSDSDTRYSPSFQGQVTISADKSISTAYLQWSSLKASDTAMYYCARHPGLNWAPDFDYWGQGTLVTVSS VL: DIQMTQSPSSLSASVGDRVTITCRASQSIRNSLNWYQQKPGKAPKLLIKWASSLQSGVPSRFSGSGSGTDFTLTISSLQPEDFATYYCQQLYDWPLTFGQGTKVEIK | 10.04
IFWM3346 (antibody, V domains shown, VH IFWH624, VL IFWL1001; converted mAb; also called IFWB3081) VH: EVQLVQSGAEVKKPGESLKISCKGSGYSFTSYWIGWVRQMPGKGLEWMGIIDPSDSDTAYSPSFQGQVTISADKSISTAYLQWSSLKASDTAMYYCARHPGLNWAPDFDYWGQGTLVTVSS VL: DIQMTQSPSSLSASVGDRVTITCRASQSIGDFLNWYQQKPGKAPKLLIYFASSLQSGVPSRFSGSGSGTDFTLTISSLQPEDFATYYCQQALDFPLTFGQGTKVEIK | 9.30
